Parameter pIC50: see the listing below.
molecular target: xanthine oxidase (Homo sapiens (Human), UniProt P47989)
Sequence (P47989 whole entry, species assumed): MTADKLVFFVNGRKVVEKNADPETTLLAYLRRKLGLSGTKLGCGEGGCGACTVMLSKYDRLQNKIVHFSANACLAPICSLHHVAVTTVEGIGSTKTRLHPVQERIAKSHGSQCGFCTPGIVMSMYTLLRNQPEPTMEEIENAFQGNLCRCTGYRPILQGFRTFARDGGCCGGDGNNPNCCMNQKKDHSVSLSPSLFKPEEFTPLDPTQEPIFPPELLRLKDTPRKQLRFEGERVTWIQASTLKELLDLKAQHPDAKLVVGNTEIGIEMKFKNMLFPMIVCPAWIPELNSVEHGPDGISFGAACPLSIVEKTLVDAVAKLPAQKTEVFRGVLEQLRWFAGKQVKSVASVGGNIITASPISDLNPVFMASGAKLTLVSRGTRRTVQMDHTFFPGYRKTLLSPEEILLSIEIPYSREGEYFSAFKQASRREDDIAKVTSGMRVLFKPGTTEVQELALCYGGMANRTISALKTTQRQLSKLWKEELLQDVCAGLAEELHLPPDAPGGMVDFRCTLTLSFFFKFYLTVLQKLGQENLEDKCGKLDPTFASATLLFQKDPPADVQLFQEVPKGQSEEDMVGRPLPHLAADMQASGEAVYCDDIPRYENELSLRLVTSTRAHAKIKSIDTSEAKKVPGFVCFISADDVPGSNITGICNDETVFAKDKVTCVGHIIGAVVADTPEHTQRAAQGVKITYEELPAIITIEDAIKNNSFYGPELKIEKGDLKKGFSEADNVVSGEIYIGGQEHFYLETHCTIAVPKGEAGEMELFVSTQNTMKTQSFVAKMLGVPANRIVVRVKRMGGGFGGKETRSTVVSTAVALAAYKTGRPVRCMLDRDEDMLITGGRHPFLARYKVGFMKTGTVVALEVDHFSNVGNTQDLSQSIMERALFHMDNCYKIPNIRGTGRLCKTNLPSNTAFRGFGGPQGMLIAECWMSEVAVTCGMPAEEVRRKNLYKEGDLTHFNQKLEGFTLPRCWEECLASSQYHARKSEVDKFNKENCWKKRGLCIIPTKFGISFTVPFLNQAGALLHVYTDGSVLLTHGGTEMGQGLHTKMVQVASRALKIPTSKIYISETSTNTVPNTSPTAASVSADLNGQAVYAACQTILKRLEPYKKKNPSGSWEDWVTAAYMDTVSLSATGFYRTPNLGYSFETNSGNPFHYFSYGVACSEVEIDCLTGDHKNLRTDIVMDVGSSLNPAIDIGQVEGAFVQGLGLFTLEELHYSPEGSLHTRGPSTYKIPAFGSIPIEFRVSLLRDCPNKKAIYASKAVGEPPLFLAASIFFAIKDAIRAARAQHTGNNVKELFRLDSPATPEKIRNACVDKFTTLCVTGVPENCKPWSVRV
pIC50: −log10 of the molar value.
READOUT_LABEL: pIC50

# COMPOUND, RESULT_NUMBER
records = [
    ("N#Cc1cc(-c2ccc(C(=O)O)c(O)c2)c2occc2c1 [Example 1]", 7.71),
    ("N#Cc1cc(-c2ccc(C(=O)O)c(O)c2)c2ccoc2c1 [Example 21]", 7.40),
    ("N#Cc1cc2c(c(-c3ccc(C(=O)O)c(O)c3)c1)OCC2 [Example 4]", 7.22),
    ("N#Cc1cc(-c2ccc(C(=O)O)c(O)c2)c2oc(F)cc2c1 [Example 29]", 7.46),
    ("N#Cc1cc(-c2ccc(C(=O)O)c(O)c2)c2oc(Cl)cc2c1 [Example 40]", 7.27),
]
